SYSTEM_UNDER_TEST: UniProt:P62993
EXPERIMENTAL_DETAILS: Binding affinity to GST-tagged Grb2 SH3C domain (unknown origin) using biotinylated Gab2b peptide as substrate at 5 mM by SDS-PAGE analysis
Activity calls are given as the source filed them. No cut-off for these calls is given here.
PROPERTY_NAME: Activity

Below, 5 compounds whose answers are already recorded.
COMPOUND: Cn1cnc(N)c2ncnc1-2
SYSTEM_UNDER_TEST: UniProt:P62993
EXPERIMENTAL_VALUE: inactive

COMPOUND: Nc1nc(N)n(Cc2ccc3c(c2)OCO3)n1
SYSTEM_UNDER_TEST: UniProt:P62993
EXPERIMENTAL_VALUE: inactive

COMPOUND: CN1CC(=O)N=C(N)N=C1N
SYSTEM_UNDER_TEST: UniProt:P62993
EXPERIMENTAL_VALUE: inactive

COMPOUND: NC1CCC(NC2CCC(N)CC2)CC1 (centres undefined)
SYSTEM_UNDER_TEST: UniProt:P62993
EXPERIMENTAL_VALUE: > 20%

COMPOUND: CC1(C)N=C(N)N=C(N)N1c1cccc(OCc2cccc(N)c2)c1
SYSTEM_UNDER_TEST: UniProt:P62993
EXPERIMENTAL_VALUE: inactive

Value wanted: Activity (UniProt:P62993) of entry Cc1ccc(O)c(C2CC(=O)NC(N)=N2)c1 (centres undefined) inactive

Check NC(C(=O)O)C(O)c1c[nH]cn1 (centres undefined) too. inactive

Check CC1(C)N=C(N)N=C(N)N1c1cc(C(F)(F)F)cc(C(F)(F)F)c1 too. inactive

Check Nc1n[nH]c2cc(O)[nH]c(=O)c12 too. > 20%

Check CC(=O)c1ccc(/N=N/c2c(N)nc(N)nc2N)cc1 too. > 20%

====

SYSTEM_UNDER_TEST: Growth factor receptor-bound protein 2 (Homo sapiens, UniProt P62993)
Sequence (P62993 whole entry, looked up, the tested form may be a part): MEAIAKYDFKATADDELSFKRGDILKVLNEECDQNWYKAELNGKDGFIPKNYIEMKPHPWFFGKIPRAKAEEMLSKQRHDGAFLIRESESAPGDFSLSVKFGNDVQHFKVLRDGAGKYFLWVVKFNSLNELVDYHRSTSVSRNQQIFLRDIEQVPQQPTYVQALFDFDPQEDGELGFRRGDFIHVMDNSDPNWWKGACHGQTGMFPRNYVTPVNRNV
EXPERIMENTAL_DETAILS: Binding affinity to GST-tagged Grb2 SH3C domain (unknown origin) using biotinylated Gab2b peptide as substrate at 5 mM by SDS-PAGE analysis
Activity calls are given as the source filed them. The calls are words filed in the database; no cut-off is given here.
PROPERTY_NAME: Activity

Below, 8 molecules whose answers are already recorded.
MOLECULE: NC=C1C(=O)NC(=O)NC1=O
EXPERIMENTAL_VALUE: inactive

MOLECULE: Nc1nc(N)c2cnnn2n1
EXPERIMENTAL_VALUE: inactive

MOLECULE: Nc1nsc2nc3ccccc3cc12
EXPERIMENTAL_VALUE: inactive

MOLECULE: N=C(NCCN)C(=N)NCCN
EXPERIMENTAL_VALUE: inactive

MOLECULE: N=C(NC1CCC(C2CCC(N)CC2)CC1)C(=N)NC1CCC(C2CCC(N)CC2)CC1 (centres undefined)
EXPERIMENTAL_VALUE: > 20%

MOLECULE: CC1(C)N=C(N)N=C(N)N1c1cccc(CO)c1
EXPERIMENTAL_VALUE: inactive

MOLECULE: Cc1nnc2c3nccnc3c(N)nn12
EXPERIMENTAL_VALUE: inactive

MOLECULE: Cc1cnc2c(c1)CCCC2C(N)=S (centres undefined)
EXPERIMENTAL_VALUE: > 20%

Report Activity for NC[C@@H]1[C@@H](CN)[C@H]2C=C[C@@H]1CC2 please. > 20%

Check CC1(C)N=C(N)N=C(N)N1c1cccc(OCC#N)c1 too. > 20%

Check CC1(C)N=C(N)N=C(N)N1c1cccc(/C=C/C=C/c2cccc([N+](=O)[O-])c2)c1 too. > 20%

Check N=C(NC1=NCCN1)C(=N)NC1=NCCN1 too. inactive

Check Cn1c(CCNC(=N)CSS(=O)(=O)O)nc2ccccc21 too. inactive

Check Cn1c(N)nc2nc[nH]c2c1=O too. inactive

Check CC1(C)N=C(N)N=C(N)N1c1cccc(OCCOc2cccc(N)c2)c1 too. inactive

Check Cc1ccc(C(/C=C/c2ccccc2)=N/NC(=N)N)cc1 too. > 20%

Check NCCN1CCN=C1C1=NCCN1CCN too. inactive

Check CN1C[C@@H]2[C@@H](N)N=C(N)N[C@@H]2C1(C)C too. inactive

Check Nc1n[nH]c(=O)n2ncnc12 too. inactive

Check C/C(=N\NC(=N)N)c1cnc(C)nc1C too. inactive

Check CC1(C)N=C(N)N=C(N)N1c1cccc(CCCCc2cccc(N)c2)c1 too. > 20%

Check CC(CC(=N)N)NC(=O)C1CCC(N)=N1 (centres undefined) too. inactive

Check NC1=NS(=O)(=O)Nc2nn(-c3ccccc3)nc21 too. inactive

Check C1CN=C(C2=NCCCN2)NC1 too. inactive
